Target: JAK2 (Homo sapiens, UniProt O60674)
Construct: All four purified enzymes contain only the catalytic domain; His (N)
Sequence (O60674 849-1124 limits assumed): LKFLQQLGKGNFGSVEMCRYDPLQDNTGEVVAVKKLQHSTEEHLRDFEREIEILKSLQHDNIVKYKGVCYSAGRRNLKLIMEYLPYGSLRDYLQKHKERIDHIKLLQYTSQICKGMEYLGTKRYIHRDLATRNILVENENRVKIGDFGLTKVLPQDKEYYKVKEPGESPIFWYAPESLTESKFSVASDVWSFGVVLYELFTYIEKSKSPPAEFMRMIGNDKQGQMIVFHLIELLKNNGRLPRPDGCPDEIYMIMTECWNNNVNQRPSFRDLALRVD
Assay: JAK2 kinase assay (HTRF, inhibition of phosphorylation of a synthetic peptide)
Conditions: catalytic domain, His-tag; 4 μM ATP (Km); read-out: JAK2 kinase inhibitory activity (EC50)
A collection of compounds and their measured EC50
Value kind: EC50

Smiles repr | Value kind | Result
N#Cc1ccccc1C(=O)N1CCCN(c2ncnc3[nH]ccc23)CC12CC2 | EC50 | 100 to 1000 nM
N#CCc1ccc(C(=O)N2CCN(c3ncnc4[nH]ccc34)CC3(CC3)C2)cc1 | EC50 | 100 to 1000 nM
O=C(c1cnsn1)N1CCN(c2ncnc3[nH]ccc23)CC2(CC2)C1 | EC50 | 100 to 1000 nM
N#Cc1cccc(C(=O)N2CCCN(c3ncnc4[nH]ccc34)CC23CC3)c1 | EC50 | < 100 nM
O=C(c1ccccc1F)N1CCN(c2ncnc3[nH]ccc23)CC2(CC2)C1 | EC50 | < 100 nM
Cc1cc(C(=O)N2CCCN(c3ncnc4[nH]ccc34)CC23CC3)on1 | EC50 | < 100 nM
COc1ncccc1C(=O)N1CCN(c2ncnc3[nH]ccc23)CC2(CC2)C1 | EC50 | > 1000 nM
Cc1nocc1C(=O)N1CCCN(c2ncnc3[nH]ccc23)CC12CC2 | EC50 | 100 to 1000 nM
Nc1nonc1C(=O)N1CCCN(c2ncnc3[nH]ccc23)CC12CC2 | EC50 | < 100 nM

---

Target: JAK1 (Homo sapiens, UniProt P23458)
Construct: JAK1 (aa 850-1154) and TYK2 (aa 871-1187) are expressed with an N-terminally fused GST-tag; GST (N); purchased Carna Biosciences, Inc; host or cells: baculovirus expression system
Sequence (P23458 850-1154): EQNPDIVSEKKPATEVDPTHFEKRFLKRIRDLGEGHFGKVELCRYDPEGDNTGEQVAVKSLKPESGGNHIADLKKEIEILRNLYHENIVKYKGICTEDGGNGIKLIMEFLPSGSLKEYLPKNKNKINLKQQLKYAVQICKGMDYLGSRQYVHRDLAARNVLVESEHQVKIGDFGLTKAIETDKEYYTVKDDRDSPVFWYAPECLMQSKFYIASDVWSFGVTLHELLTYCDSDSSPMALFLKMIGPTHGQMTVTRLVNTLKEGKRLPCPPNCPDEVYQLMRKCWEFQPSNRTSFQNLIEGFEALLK
Test: JAK1 kinase assay (HTRF, inhibition of phosphorylation of a synthetic peptide)
Format: biochemical
Settings: catalytic domain aa 850-1154, GST-tag; 7 μM ATP (Km); read-out: JAK1 kinase inhibitory activity (EC50)
Experimental: JAK1, JAK2, JAK3 and TYK2 Kinase Assays: Human baculovirus-expressed JAK1, 2, 3 and TYK2 were purchased from Carna Biosciences, Inc. All four purified enzymes contain only the catalytic domain. […] Inhibition of phosphorylation of a synthetic peptide was measured in an HTRF-based assay using the TK substrate-Biotin from the CisbioHTRFKinEASE TK kit. […] The HTRF signal is read using an Envision plate reader.

Molecule | EC50
COc1cc(OC)cc(C(=O)N2CCN(c3ncnc4[nH]ccc34)CC3(CC3)C2)c1 [Example 43] | > 1000 nM
COc1cc(C(=O)N2CCN(c3ncnc4[nH]ccc34)CC3(CC3)C2)ccc1S(N)(=O)=O [Example 53] | 100 to 1000 nM
O=C(c1cn[nH]c1)N1CCN(c2ncnc3[nH]ccc23)CC2(CC2)C1 [Example 157] | 100 to 1000 nM
Cc1cc(C(=O)N2CCN(c3ncnc4[nH]ccc34)CC3(CC3)C2)ccc1S(N)(=O)=O [Example 29] | 100 to 1000 nM
c1nc(N2CCNCC3(CC3)C2)c2cc[nH]c2n1 [Example 290] | > 1000 nM
N#Cc1ccc(CC(=O)N2CCCN(c3ncnc4[nH]ccc34)CC23CC3)cc1 [Example 59] | 100 to 1000 nM
N#CCc1ccccc1C(=O)N1CCN(c2ncnc3[nH]ccc23)CCC12CC2 [Example 48] | > 1000 nM
O=C(c1cc(O)[nH]n1)N1CCCN(c2ncnc3[nH]ccc23)CC12CC2 [Example 212] | 100 to 1000 nM
O=C1OCCN1CC(=O)N1CCCN(c2ncnc3[nH]ccc23)CC12CC2 [Example 86] | > 1000 nM
O=C(Cc1nnn[nH]1)N1CCN(c2ncnc3[nH]ccc23)CC2(CC2)C1 [Example 215] | < 100 nM
CN(CC#N)C(=O)N1CCN(c2ncnc3[nH]ccc23)CC2(CC2)C1 [Example 218] | 100 to 1000 nM
O=C(CCC(F)(F)F)N1CCN(c2ncnc3[nH]ccc23)CCC12CC2 [Example 45] | 100 to 1000 nM
O=C(c1ccns1)N1CCN(c2ncnc3[nH]ccc23)CC2(CC2)C1 [Example 235] | 100 to 1000 nM
O=C(c1cncc(F)c1)N1CCN(c2ncnc3[nH]ccc23)CC2(CC2)C1 [Example 213] | 100 to 1000 nM
Cc1ccc(S(=O)(=O)N2CCCN(c3ncnc4[nH]ccc34)CC23CC3)cc1 [Example 94] | > 1000 nM
O=C1CSC(=O)N1CC(=O)N1CCCN(c2ncnc3[nH]ccc23)CC12CC2 [Example 85] | 100 to 1000 nM
N#CCN(CC#N)C(=O)N1CCN(c2ncnc3[nH]ccc23)CC2(CC2)C1 [Example 219] | 100 to 1000 nM
NS(=O)(=O)c1ccc(C(=O)N2CCN(c3ncnc4[nH]ccc34)CC3(CC3)C2)o1 [Example 37] | 100 to 1000 nM
